- test.description: Extraction of ethanol from an aqueous solution by ionic liquid
- Type: physicochemical
- condition.parameters: 5 vol % ionic liquid; percentage of alcohol remaining in control
Please provide measured % EthOH Extracted for the entries that follow.
Answers are plain numbers, in %.

I'm hoping you can list % EthOH Extracted for every compound here, please.
1. CCOCC[N+](C)(C)CCN1C(=O)CCC1C (stereo not shown) [[MeDMEEAP] [HFPS]]
2. COCC[N+](C)(C)CCN1C(=O)CCC1C.O=S(=O)([N-]S(=O)(=O)C(F)(F)F)C(F)(F)F (stereo not shown) [[[MeDMMEAP] [Tf2N]]
3. COCC[N+](C)(C)CCN1C(=O)CCC1C (stereo not shown) [[MeDMMEAP] [HFPS]]
4. CCOCC[N+](C)(C)CCN1C(=O)CCC1C (stereo not shown) [[MeDMEEAP] [Tf2N]]

Reply:
1. 0.00
2. 1.88
3. 1.48
4. 2.66

###

Consider the following compounds; for each one, report its mM Ethanol (in solution after extraction).
- test.description: Extraction of ethanol from an aqueous solution by ionic liquid
- Format: physicochemical
- condition.parameters: 3 mL aqueous solution, about 31 g/L ethanol, 5 vol % ionic liquid, overnight equilibration; control 655
One number for each entry, in mM.

compound	unit.name	quantitative.result
CCOCC[N+](C)(C)CCN1C(=O)CCC1C (stereo not shown) [[MeDMEEAP] [Tf2N]]	mM	637
COCC[N+](C)(C)CCN1C(=O)CCC1C.O=S(=O)([N-]S(=O)(=O)C(F)(F)F)C(F)(F)F (stereo not shown) [[[MeDMMEAP] [Tf2N]]	mM	643
CCOCC[N+](C)(C)CCN1C(=O)CCC1C (stereo not shown) [[MeDMEEAP] [HFPS]]	mM	656

With those in mind, consider the next compound.
Ask: I have this compound here, COCC[N+](C)(C)CCN1C(=O)CCC1C (stereo not shown) [[MeDMMEAP] [HFPS]] , and I need its recorded mM Ethanol (in solution after extraction).
Reply: 645

These data points were gathered from patent US20100143992A1.
